testedTarget: Cst6 (UniProt P40535)
Sequence (P40535 whole entry): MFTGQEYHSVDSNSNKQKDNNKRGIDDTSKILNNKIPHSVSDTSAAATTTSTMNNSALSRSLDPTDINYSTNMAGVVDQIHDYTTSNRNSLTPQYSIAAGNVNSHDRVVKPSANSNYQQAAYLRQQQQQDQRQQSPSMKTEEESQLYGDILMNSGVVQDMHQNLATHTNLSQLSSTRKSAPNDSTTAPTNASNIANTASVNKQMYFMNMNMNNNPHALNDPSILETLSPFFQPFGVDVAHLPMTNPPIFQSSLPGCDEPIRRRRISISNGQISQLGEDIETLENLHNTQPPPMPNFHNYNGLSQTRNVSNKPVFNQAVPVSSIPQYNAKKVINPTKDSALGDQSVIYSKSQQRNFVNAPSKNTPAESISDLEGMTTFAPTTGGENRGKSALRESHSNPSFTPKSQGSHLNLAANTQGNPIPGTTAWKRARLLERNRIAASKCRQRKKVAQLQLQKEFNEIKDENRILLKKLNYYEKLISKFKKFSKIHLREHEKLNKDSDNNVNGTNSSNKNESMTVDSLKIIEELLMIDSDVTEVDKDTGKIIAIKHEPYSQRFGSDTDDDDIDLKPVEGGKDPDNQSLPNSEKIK
experimentalDetails: PBM E-score (8-mer binding enrichment) (E-score (-0.5 to 0.5)); higher = stronger / more preferred TF binding
conditionDetails: protein concentration: 200 nM; construct: GST-DNA-binding domain
Whole data set: some 33,000 sequences, median “E-score (-0.5 to 0.5)” near -0.016, cut for the highest 2% near 0.31. Shown is part of a subset that was picked to be rich in the highest values.
Decide by PBM E-score: equal to or exceeding -0.02 means label 1, less means label 0.

INPUT: Confirm if PBM E-score reported for the sequence CTACCGTA is -0.02 or above.
OUTPUT: label 1

INPUT: Confirm if PBM E-score reported for the sequence TCGACACA is -0.02 or above.
OUTPUT: label 1

INPUT: Confirm if PBM E-score reported for the sequence CCTGGGGA is -0.02 or above.
OUTPUT: label 0

INPUT: Confirm if PBM E-score reported for the sequence GGTGCGTA is -0.02 or above.
OUTPUT: label 0

INPUT: Confirm if PBM E-score reported for the sequence ACGGATTC is -0.02 or above.
OUTPUT: label 1

INPUT: Confirm if PBM E-score reported for the sequence CACACAGG is -0.02 or above.
OUTPUT: label 1

INPUT: Confirm if PBM E-score reported for the sequence GGGAAAAC is -0.02 or above.
OUTPUT: label 0

INPUT: Confirm if PBM E-score reported for the sequence ATGGGTCC is -0.02 or above.
OUTPUT: label 0

INPUT: Confirm if PBM E-score reported for the sequence ATCAGTGA is -0.02 or above.
OUTPUT: label 1

INPUT: Confirm if PBM E-score reported for the sequence AGACCGTC is -0.02 or above.
OUTPUT: label 0

INPUT: Confirm if PBM E-score reported for the sequence AAAGATCT is -0.02 or above.
OUTPUT: label 0

INPUT: Confirm if PBM E-score reported for the sequence CTACGTAG is -0.02 or above.
OUTPUT: label 1

INPUT: Confirm if PBM E-score reported for the sequence CCTCAGAA is -0.02 or above.
OUTPUT: label 0

INPUT: Confirm if PBM E-score reported for the sequence AGTGGAGC is -0.02 or above.
OUTPUT: label 0

INPUT: Confirm if PBM E-score reported for the sequence ACCCTGCT is -0.02 or above.
OUTPUT: label 0

INPUT: Confirm if PBM E-score reported for the sequence ACCGGTCA is -0.02 or above.
OUTPUT: label 1

INPUT: Confirm if PBM E-score reported for the sequence AAGGGACA is -0.02 or above.
OUTPUT: label 0

###

testedTarget: Cst6 (UniProt P40535)
experimentalDetails: PBM E-score (8-mer binding enrichment) (E-score (-0.5 to 0.5)); higher = stronger / more preferred TF binding
conditionDetails: protein concentration: 200 nM; construct: GST-DNA-binding domain
Whole data set: some 33,000 sequences, median “E-score (-0.5 to 0.5)” near -0.016, cut for the highest 2% near 0.31. For the sample, the highest values were picked, then their nearest neighbours and some sequences at random.
measurementName: PBM E-score
// response body must contain only the number

INPUT: Using known records, supply PBM E-score for GAATAAAA
OUTPUT: 0.216

INPUT: Using known records, supply PBM E-score for TAATATAA
OUTPUT: 0.358

INPUT: Using known records, supply PBM E-score for GAGTTACC
OUTPUT: -0.0903

INPUT: Using known records, supply PBM E-score for TTATATAA
OUTPUT: 0.24

INPUT: Using known records, supply PBM E-score for ATTGGCGC
OUTPUT: 0.0493

INPUT: Using known records, supply PBM E-score for ATATATAA
OUTPUT: 0.324

INPUT: Using known records, supply PBM E-score for GGCCCTCA
OUTPUT: -0.266
